tested on: SK-MEL-5 melanoma; experiment: NCI-60 one-dose screen, 48 h; conditions: 10 µM unless noted
This is part of a sample that, as a whole, favours compounds with a hit. Of some 83,000 tested, about 20% had one in any assay. The source made the active and inactive calls. The calls were made as follows: active = growth percent below 10; inactive = the rest.
Returns: one label drawn from true = active, false = inactive

[
  {
    "MOLECULE": "CN1CCN(CCOc2cc(OC3CCOCC3)c3c(Nc4c(Cl)ccc5c4OCO5)ncnc3c2)CC1",
    "CATEGORY_LABEL": "false"
  },
  {
    "MOLECULE": "CCN1CCN(c2cc(C)nc(N(CCCNc3ccnc4cc(Cl)ccc34)Cc3cccs3)n2)CC1",
    "CATEGORY_LABEL": "true"
  },
  {
    "MOLECULE": "CCc1nc(C(N)=O)c(Nc2ccc(N3CCC(N4CCN(C)CC4)CC3)c(OC)c2)nc1NC1CCOCC1",
    "CATEGORY_LABEL": "false"
  },
  {
    "MOLECULE": "CCOc1ccc(N=C(C)Nc2ccc(OCC)cc2)cc1",
    "CATEGORY_LABEL": "false"
  }
]

Proceed to the following item.
Q) What did the test return for CC(=Nc1ccccc1)C1=C(O)C(Cc2ccccc2)NC1=O (stereo not given) ?
A) true

* * *

Give growth for every item shown.
tested on: OVCAR-5 ovarian; test: NCI-60 one-dose screen, 48 h (100 = growth as untreated, 0 = no growth, -100 = all killed); conditions: 10 µM unless noted
The panel holds about 83,000 compounds, 20% with a hit somewhere; the sample as a whole holds those more often.
Answers are plain numbers, in %.

Past entries and their recorded results:
[
  {
    "COMPOUND": "CO[C@@H](C(=O)N1Cc2[nH]nc(NC(=O)c3ccc(N4CCN(C)CC4)cc3)c2C1)c1ccccc1",
    "growth (%)": 4.9
  },
  {
    "COMPOUND": "COc1ccc(F)c(F)c1C(=O)c1cnc(NC2CCN(S(C)(=O)=O)CC2)nc1N",
    "growth (%)": 12.6
  },
  {
    "COMPOUND": "Clc1nc(Cl)c2ncn(CC#CCn3cnc4c(Cl)nc(Cl)nc43)c2n1",
    "growth (%)": -2.99
  },
  {
    "COMPOUND": "CCN1/C(=C/C=C/c2n(-c3ccccc3)c3ccc(-c4nc5ccccc5s4)cc3[n+]2CC)N(c2ccccc2)c2ccc(-c3nc4ccccc4s3)cc21",
    "growth (%)": 31.4
  },
  {
    "COMPOUND": "COc1cc2c(cc1OCCCCCN1CCN(c3ncnc4ccccc34)CC1)N=CC1CCCN1C2=O (stereo not drawn)",
    "growth (%)": 23.8
  }
]

Kindly give each listed record's growth.
1. C1=C\COCc2cc(ccc2OCCN2CCCC2)Nc2nccc(n2)-c2cccc(c2)COC/1
2. COC(=O)[C@]12CC[C@@H](C)[C@H](C)[C@@H]1C1=CC[C@@H]3[C@@]4(C)C(c5cnco5)=C[C@@](C)(CO)C4=CC[C@@]3(C)[C@]1(C)CC2

A)
[-6.58, 78.8]

Q) Check the records and state growth for COc1ccc2c(CCCC(c3ccccc3)c3ccccc3)c3[n+](cc2c1OC)CCc1cc2c(cc1-3)OCO2
A) 31.8

* * *

Give growth for every item shown.
tested on: NCI/ADR-RES ovarian; assay: NCI-60 one-dose screen, 48 h (100 = growth as untreated, 0 = no growth, -100 = all killed); conditions: 10 µM unless noted
Compounds without any hit were thinned out: in the full panel of roughly 83,000, 20% have a hit. Active and inactive are the calls of the source. Rule for the calls: active = growth percent below 10; inactive = the rest.

Past entries and their recorded results:
[
  {
    "COMPOUND": "CN1CCN(CCOc2cc(OC3CCOCC3)c3c(Nc4c(Cl)ccc5c4OCO5)ncnc3c2)CC1",
    "growth": "60.7% (inactive)"
  },
  {
    "COMPOUND": "Cc1nc(N)sc1-c1ccnc(Nc2ccc(N3CCOCC3)cc2)n1",
    "growth": "61.4% (inactive)"
  },
  {
    "COMPOUND": "COc1ccc2c(OCc3nnc4ccc(-c5ccccc5)nn34)ccnc2c1",
    "growth": "76.3% [2.5 µM] (inactive)"
  }
]

Kindly give each listed record's growth.
1. CCC1(/C=N/NC(N)=S)NC(=O)NC1=O (stereo not given)
2. COc1ccc2c(CCCC(c3ccccc3)c3ccccc3)c3[n+](cc2c1OC)CCc1cc2c(cc1-3)OCO2
3. Cc1cc(N2CCOCC2)nc(N(CCNc2ccnc3cc(Cl)ccc23)Cc2cccs2)n1
4. C[C@@H](NC(=O)c1ncnc(N)c1Cl)c1ncc(C(=O)Nc2cc(C(F)(F)F)c(Cl)cn2)s1

A)
1: 111% (inactive); 2: 71.7% (inactive); 3: 34.1% (inactive); 4: 79.8% (inactive)

* * *

test system: HCT-116 colon; assay: NCI-60 one-dose screen, 48 h (100 = growth as untreated, 0 = no growth, -100 = all killed); settings: 10 µM unless noted
This is part of a sample that, as a whole, favours compounds with a hit. Of some 83,000 tested, about 20% had one in any assay.
Give growth for every item shown.
Answers are plain numbers, in %.

Kindly give each listed record's growth.
1. COc1ccc(F)c(F)c1C(=O)c1cnc(NC2CCN(S(C)(=O)=O)CC2)nc1N
2. CC(=Nc1ccccc1)C1=C(O)C(Cc2ccccc2)NC1=O (stereo unspecified)
3. O=C1NC(=O)C(c2cnc3ccccn23)=C1c1cn2c3c(cc(F)cc13)CN(C(=O)N1CCCCC1)CC2
4. CN1CCC(CNc2ccc3ncc(-c4cccc(OC(F)(F)F)c4)n3n2)CC1
5. COc1cc2c(c(OC)c1)C1c3ccccc3NC(=O)N1CC2 (stereo unspecified)
6. Clc1ccc(C(Cn2ccnc2)OCc2ccsc2Cl)c(Cl)c1 (stereo unspecified)
7. CSC1=C(N)C(=O)c2[nH]cc(CO)c2C1=N

A)
[4.77, 2.49, 17.1, -75.1, 30.6, 26.3, -86.7]

* * *

system: MCF7 breast; test: NCI-60 one-dose screen, 48 h (100 = growth as untreated, 0 = no growth, -100 = all killed); settings: 10 µM unless noted
The panel holds about 83,000 compounds, 20% with a hit somewhere; the sample as a whole holds those more often.
ASSAY_ENDPOINT: growth (%)
Numbers only, in %.

[
  {
    "COMPOUND": "CNC(=O)c1ccccc1Nc1nc(Nc2ccc3c(c2OC)CCC[C@H](N2CCN(CCO)CC2)C3)ncc1Cl",
    "MEASURE_UNIT": "%",
    "MEASUREMENT": 6.63
  },
  {
    "COMPOUND": "COC(=O)CNC(=O)[C@@H](OC)[C@@H]1Cc2cc3cc(OC4CC(OC5CC(O)C(O)C(C)O5)C(O)C(C)O4)c(C)c(O)c3c(O)c2C(=O)[C@H]1OC1CC(OC2CC(OC3CC(C)(O)C(O)C(C)O3)C(O)C(C)O2)C(O)C(C)O1 (stereo partly drawn)",
    "MEASURE_UNIT": "%",
    "MEASUREMENT": 7.64
  },
  {
    "COMPOUND": "OCCNC(=S)Nc1ccc(-c2nc(N3C[C@H]4CC[C@@H](C3)O4)c3cccn3n2)cc1",
    "MEASURE_UNIT": "%",
    "MEASUREMENT": 9.19
  }
]

Kindly give each listed record's growth.
1. CCOC(=O)c1sc(NC(=O)COc2ccc(/C=C3\Cc4ccc(Cl)cc4C3=O)cc2)nc1C
2. Clc1ccc2c(NCCCNCc3ccc4c(c3)OCO4)ccnc2c1
3. O=C1NC(=O)C(c2cnc3ccccn23)=C1c1cn2c3c(cc(F)cc13)CN(C(=O)N1CCCCC1)CC2
4. Cc1ccccc1N1C(c2ccccc2)=NNC12C=CC(=O)C=C2Cl (stereo not drawn)

A)
1. 96.1
2. 31.5
3. 35.2
4. 98

Q) Check the records and state growth for CC1(C=O)NC(=O)NC1=O (stereo not drawn)
A) 95.6

* * *

tested on: NCI-H23 lung; assay: NCI-60 one-dose screen, 48 h (100 = growth as untreated, 0 = no growth, -100 = all killed); conditions: 10 µM unless noted
About 83,000 compounds went through this panel and 20% of them were active in at least one assay; those are over-represented in the sample as a whole.
Mark each entry y if its growth sits below 20%, and n for all others.

Below, 5 molecules whose answers are already recorded.
[
  {
    "MOLECULE": "CCc1ccc(C2=C(O)C(=O)C(c3ccc(CC)cc3)=C(O)C2=O)cc1",
    "ASSAYED_SYSTEM": "NCI-H23 lung",
    "CATEGORY_LABEL": "y"
  },
  {
    "MOLECULE": "CC1(/C=N/NC(N)=S)NC(=O)NC1=O (stereo not given)",
    "ASSAYED_SYSTEM": "NCI-H23 lung",
    "CATEGORY_LABEL": "n"
  },
  {
    "MOLECULE": "CC(=O)C1=C(C)NC(SCc2nnc(-c3ccc(C)cc3)o2)=NC1c1ccc(F)cc1 (stereo not given)",
    "ASSAYED_SYSTEM": "NCI-H23 lung",
    "CATEGORY_LABEL": "n"
  },
  {
    "MOLECULE": "CC1=CC2c3oc(-c4ccccc4)c(C(=O)c4ccccc4)c3CNC2C=C1 (stereo not given)",
    "ASSAYED_SYSTEM": "NCI-H23 lung",
    "CATEGORY_LABEL": "n"
  },
  {
    "MOLECULE": "O=C(COc1cccc(/C=C2\\Cc3ccc(Cl)cc3C2=O)c1)Nc1nccs1",
    "ASSAYED_SYSTEM": "NCI-H23 lung",
    "CATEGORY_LABEL": "n"
  }
]

Q) Please check: growth for Cc1cc(Nc2ncc(Cl)c(Nc3ccccc3S(=O)(=O)C(C)C)n2)c(OC(C)C)cc1C1CCNCC1 , strictly under 20% or not?
A) y

Q) Please check: growth for O=C1CC(c2cccc(F)c2)c2c(n[nH]c2-c2ccc(Cl)cc2)N1 (stereo not given) , strictly under 20% or not?
A) n

Numbers sourced from PubChem BioAssay (NCI).
